# Tested on: Panc 05.04 cells (pancreatic cancer cells; Q699H and K700E mutations in SF3B1)
# assay_details: Cell viability assay (CellTiter-Glo, 72 hr), Panc 05.04 cells
# Assay type: cell-based
# condition_parameters: Panc 05.04 cells (mutant SF3B1); read-out: Panc 05.04 (mt SF3B1 cells), GI50
Mark each entry 1 if its GI50 sits below 200 nM, and -1 for all others.

Example entries begin here.
compound=C/C(=C\C=C\[C@@H](C)c1ncccn1)[C@H]1OC(=O)C[C@H](O)CC[C@@](C)(O)[C@@H](OC(=O)N2CCN(C3CCCCCC3)CC2)/C=C/[C@@H]1C target_or_test_system="Panc 05.04 cells (pancreatic cancer cells; Q699H and K700E mutations in SF3B1)" label_class=1
compound=C/C(=C\C=C\[C@H](C)c1ncccn1)[C@H]1OC(=O)C[C@H](O)CC[C@@](C)(O)[C@@H](OC(=O)N2CCN(C3CCCCCC3)CC2)/C=C/[C@@H]1C target_or_test_system="Panc 05.04 cells (pancreatic cancer cells; Q699H and K700E mutations in SF3B1)" label_class=1
compound=C/C(=C\C=C\[C@@H](C)COC(=O)N1CC[C@@H](NC(=O)OC(C)(C)C)C1)[C@H]1OC(=O)C[C@H](O)CC[C@@](C)(O)[C@@H](OC(=O)N2CCN(C3CCCCCC3)CC2)/C=C/[C@@H]1C target_or_test_system="Panc 05.04 cells (pancreatic cancer cells; Q699H and K700E mutations in SF3B1)" label_class=1
compound=C/C(=C\C=C\[C@H](C)c1ccccn1)[C@H]1OC(=O)C[C@H](O)CC[C@@](C)(O)[C@@H](OC(=O)N2CCN(C)CC2)/C=C/[C@@H]1C target_or_test_system="Panc 05.04 cells (pancreatic cancer cells; Q699H and K700E mutations in SF3B1)" label_class=1
compound=C/C(=C\C=C\[C@@H](C)c1ccccn1)[C@H]1OC(=O)C[C@H](O)CC[C@@](C)(O)[C@@H](OC(=O)N2CCOCC2)/C=C/[C@@H]1C target_or_test_system="Panc 05.04 cells (pancreatic cancer cells; Q699H and K700E mutations in SF3B1)" label_class=-1

Please check: GI50 for `CC(=O)O[C@H]1/C=C/[C@H](C)[C@@H](/C(C)=C/C=C/[C@@H](C)CO)OC(=O)C[C@H](O)CC[C@@]1(C)O` , strictly under 200 nM or not?
-1

Please check: GI50 for `C/C(=C\C=C\[C@@H](C)COC(=O)N1CC[C@H](F)C1)[C@H]1OC(=O)C[C@H](O)CC[C@@](C)(O)[C@@H](OC(=O)N2CCN(C)CC2)/C=C/[C@@H]1C` , strictly under 200 nM or not?
1

Please check: GI50 for C/C(=C\C=C\C(C)c1ccnc(N(C)C)n1)[C@H]1OC(=O)CCCCC[C@@H](OC(=O)N2CCN(C3CCCCCC3)CC2)/C=C/[C@@H]1C (stereo partly drawn) , strictly under 200 nM or not?
-1

Please check: GI50 for COc1cccc(C(C)/C=C/C=C(\C)[C@H]2OC(=O)C[C@H](O)CC[C@@](C)(O)[C@@H](OC(C)=O)/C=C/[C@@H]2C)n1 (stereo partly drawn) , strictly under 200 nM or not?
-1

Please check: GI50 for C/C(=C\C=C\C(C)c1ccnc(N(C)C)n1)[C@H]1OC(=O)C[C@H](O)CC[C@@](C)(O)[C@@H](OC(=O)N2CCN(C)CC2)/C=C/[C@@H]1C (stereo partly drawn) , strictly under 200 nM or not?
-1

Reference source for all entries: patent US11926619B2
